The measurements presented in this section are drawn from ChEMBL document CHEMBL3085696.

- TARGET_OR_TEST_SYSTEM: Aurora kinase A (Homo sapiens, UniProt O14965)
- Sequence (O14965 whole entry): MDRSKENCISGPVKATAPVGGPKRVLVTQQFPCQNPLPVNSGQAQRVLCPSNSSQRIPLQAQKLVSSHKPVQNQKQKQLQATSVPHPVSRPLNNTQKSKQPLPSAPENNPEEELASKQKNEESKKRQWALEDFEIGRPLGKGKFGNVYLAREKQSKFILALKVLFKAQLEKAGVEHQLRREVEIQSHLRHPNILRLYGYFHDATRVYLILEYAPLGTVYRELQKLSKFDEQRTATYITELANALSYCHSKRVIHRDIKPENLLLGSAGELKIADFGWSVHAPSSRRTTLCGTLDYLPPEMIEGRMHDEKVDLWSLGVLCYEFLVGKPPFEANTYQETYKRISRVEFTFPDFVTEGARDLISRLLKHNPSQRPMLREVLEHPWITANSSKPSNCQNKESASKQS
- ASSAY: Inhibition of N-terminal HIS-tagged aurora-A (unknown origin) using 5FAM-LRRASLG-CONH2 as substrate after 60 mins
This listing pairs compounds with measured IC50.
Lab book: enter the figure in nM, no units written.

Use the examples below as a reference point.
COMPOUND_STRUCTURE: COc1ccc(-c2[nH]c3ncc(Cl)cc3c2-c2cccc(CNC(C)=O)c2)cc1
TARGET_OR_TEST_SYSTEM: Aurora kinase A (Homo sapiens, UniProt O14965)
NUMERIC_VALUE: 743

COMPOUND_STRUCTURE: CC(=O)NCc1cccc(-c2c(-c3cnn(C)c3)[nH]c3ncc(Cl)cc23)c1
TARGET_OR_TEST_SYSTEM: Aurora kinase A (Homo sapiens, UniProt O14965)
NUMERIC_VALUE: 118

COMPOUND_STRUCTURE: O=C(Nc1ccccc1)c1ccc(Oc2c(Cl)cnc3nc[nH]c23)cc1
TARGET_OR_TEST_SYSTEM: Aurora kinase A (Homo sapiens, UniProt O14965)
NUMERIC_VALUE: 25800

COMPOUND_STRUCTURE: Cc1nn(C)cc1-c1nc2c(Oc3ccc(C(=O)NCc4ccccc4)cc3)c(Cl)cnc2[nH]1
TARGET_OR_TEST_SYSTEM: Aurora kinase A (Homo sapiens, UniProt O14965)
NUMERIC_VALUE: 204

Challenge: State the recorded IC50 for this entry: Cc1nn(C)cc1-c1nc2c(Nc3ccc(C(=O)Nc4ccccc4)cc3)c(Cl)cnc2[nH]1
Response given: 75

Challenge: State the recorded IC50 for this entry: Cc1nn(C)cc1-c1nc2c(N3CCC[C@H](CNS(C)(=O)=O)C3)c(Cl)cnc2[nH]1
Response given: 5

* * *

- TARGET_OR_TEST_SYSTEM: Aurora kinase A (Homo sapiens, UniProt O14965)
- ASSAY: Inhibition of N-terminal HIS-tagged aurora-A (unknown origin) using 5FAM-LRRASLG-CONH2 as substrate after 60 mins
pIC50: −log10 of the molar value.
Decision: pIC50 >= 7 yields Satisfied, all other cases yield Not satisfied.

Solved cases below.
COMPOUND_STRUCTURE: Cc1nn(C)cc1-c1nc2ncc(Cl)c(Oc3ccc(C(=O)Nc4ccncc4)cc3)c2[nH]1
CLASS_NAME: Not satisfied
//
COMPOUND_STRUCTURE: CC(=O)N[C@@H]1CCN(c2c(Cl)cnc3[nH]c(-c4cn(C)nc4C)nc23)C1
CLASS_NAME: Satisfied
//
COMPOUND_STRUCTURE: Cn1cc(-c2[nH]c3ncc(Cl)cc3c2-c2cccc(CNS(C)(=O)=O)c2)cn1
CLASS_NAME: Not satisfied

Now take the following compound into account.
Challenge: Please indicate if the recorded pIC50 for Cc1nn(C)cc1-c1nc2ncc(Cl)c(Oc3ccc(C(=O)N4CCCC4)cc3)c2[nH]1 meets or exceeds 7.
Response given: Satisfied

* * *

This listing pairs molecules with measured pIC50.
- TARGET_OR_TEST_SYSTEM: Aurora kinase B (Homo sapiens)
- Sequence (Q96GD4 whole entry): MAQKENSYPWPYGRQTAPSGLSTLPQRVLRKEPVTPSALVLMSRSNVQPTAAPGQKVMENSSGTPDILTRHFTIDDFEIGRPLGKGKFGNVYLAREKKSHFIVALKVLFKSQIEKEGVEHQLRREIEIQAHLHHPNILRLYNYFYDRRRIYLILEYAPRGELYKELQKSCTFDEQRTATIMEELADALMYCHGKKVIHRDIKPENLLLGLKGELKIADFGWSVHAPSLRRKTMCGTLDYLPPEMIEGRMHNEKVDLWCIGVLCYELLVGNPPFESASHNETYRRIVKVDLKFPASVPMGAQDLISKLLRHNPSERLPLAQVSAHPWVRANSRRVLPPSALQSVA
- ASSAY: Inhibition of N-terminal Myc tagged aurora-B-mediated histone H3 phosphorylation at S10 in human HCT116 cells after 2 hrs
- Type: cell-based, HCT-116
Entry type: numeric. Quantity: pIC50, the -log10 of concentration in molar units.

COMPOUND_STRUCTURE: Cc1cc(NC(=O)c2ccc(Oc3c(Cl)cnc4nc(-c5cn(C)nc5C)[nH]c34)cc2)on1
pIC50: 5.31

# evaluate next
Challenge: State the recorded pIC50 for this entry: Cc1nn(C)cc1-c1nc2c(Oc3ccc(C(=O)Nc4ccccc4)cc3)c(Cl)cnc2[nH]1
Response given: 4.61
